# Tested on: human lung cancer strain NCI-H441
# Type: cell-based
Where a SMILES comes first, the peptide text is derived from it. Bridges are numbered along the chain shown (N, C = ends). [ ]: non-standard residue; d: D form. The star is where a group is joined. hPhe(3-Cl-4-CF3) = N[C@@H](CCc1ccc(C(F)(F)F)c(Cl)c1)C(=O)O; NEtPhe(4-CF3) = CCN[C@@H](Cc1ccc(C(F)(F)F)cc1)C(=O)O; NMeGly(cPent) = CN[C@H](C(=O)O)C1CCCC1; NMeD = CN[C@@H](CC(=O)O)C(=O)O; NMeL = CN[C@@H](CC(C)C)C(=O)O; Morpholide = C1CN(*)CCO1; NMeA = CN[C@@H](C)C(=O)O; Ac5c = NC1(C(=O)O)CCCC1; Aze = O=C(O)[C@@H]1CCN1; Sar = CNCC(=O)O

| molecule | u | IC50 |
| --- | --- | --- |
| CC[C@H](C)[C@@H]1NC(=O)[C@H](CC(C)C)N(C)C(=O)C[C@@H](C(=O)N2CCOCC2)N(C)C(=O)[C@H](C2CCCC2)N(C)C(=O)C2(CCCC2)NC(=O)[C@@H]2CCCN2C(=O)[C@H](CCc2ccc(C(F)(F)F)c(Cl)c2)NC(=O)CN(C)C(=O)[C@H](Cc2ccc(C(F)(F)F)cc2)N(CC)C(=O)[C@@H]2CCN2C(=O)[C@H](C)N(C)C1=O [PP0002] ([NMeL]I[NMeA][Aze][NEtPhe(4-CF3)][Sar][hPhe(3-Cl-4-CF3)]P[Ac5c][NMeGly(cPent)][NMeD]-Morpholide; lactam N-11) | nM | 2.1 |
